From: ChEMBL document CHEMBL1926604

# target: Voltage-gated inwardly rectifying potassium channel KCNH2 (Homo sapiens, UniProt Q12809)
# Sequence (Q12809 whole entry): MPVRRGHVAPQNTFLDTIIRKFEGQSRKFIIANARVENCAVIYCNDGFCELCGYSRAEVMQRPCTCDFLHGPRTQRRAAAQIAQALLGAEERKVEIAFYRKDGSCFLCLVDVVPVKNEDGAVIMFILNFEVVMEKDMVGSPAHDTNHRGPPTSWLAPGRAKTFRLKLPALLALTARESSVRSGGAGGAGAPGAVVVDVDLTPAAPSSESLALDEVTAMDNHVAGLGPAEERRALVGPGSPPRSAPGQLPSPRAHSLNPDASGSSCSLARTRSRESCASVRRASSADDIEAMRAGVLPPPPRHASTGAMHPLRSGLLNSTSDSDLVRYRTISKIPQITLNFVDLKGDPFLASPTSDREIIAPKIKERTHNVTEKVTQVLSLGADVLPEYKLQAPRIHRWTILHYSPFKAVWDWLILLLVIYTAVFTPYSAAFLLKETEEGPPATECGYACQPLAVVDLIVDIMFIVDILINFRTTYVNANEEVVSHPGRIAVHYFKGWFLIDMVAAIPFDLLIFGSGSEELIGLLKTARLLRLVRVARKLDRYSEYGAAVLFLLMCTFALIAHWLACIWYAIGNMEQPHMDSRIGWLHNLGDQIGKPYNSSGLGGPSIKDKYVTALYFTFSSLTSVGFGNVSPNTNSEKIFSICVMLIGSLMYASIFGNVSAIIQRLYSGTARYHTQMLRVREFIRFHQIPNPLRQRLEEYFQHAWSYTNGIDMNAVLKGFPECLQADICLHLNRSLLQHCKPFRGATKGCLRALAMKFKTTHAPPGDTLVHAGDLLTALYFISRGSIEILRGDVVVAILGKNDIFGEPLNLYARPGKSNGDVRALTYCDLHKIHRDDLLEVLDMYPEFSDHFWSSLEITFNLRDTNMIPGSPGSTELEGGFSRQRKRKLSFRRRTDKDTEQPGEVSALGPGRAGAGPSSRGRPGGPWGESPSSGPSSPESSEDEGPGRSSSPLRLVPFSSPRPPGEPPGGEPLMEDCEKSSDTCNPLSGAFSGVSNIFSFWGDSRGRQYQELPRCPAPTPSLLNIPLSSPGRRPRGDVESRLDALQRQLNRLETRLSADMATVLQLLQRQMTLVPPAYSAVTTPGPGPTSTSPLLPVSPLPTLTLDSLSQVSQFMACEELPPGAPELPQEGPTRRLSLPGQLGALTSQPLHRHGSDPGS
readout: pIC50
// returns pIC50 (minus log10 of molar concentration), number only

Measured on Voltage-gated inwardly rectifying potassium channel KCNH2 (Homo sapiens, UniProt Q12809), COc1ccc(N(Cc2cnccc2C)C2CCN([C@H](C)CCNC(=O)c3c(C)cc(Cl)nc3C)CC2)cc1 has a documented pIC50 of 6.60

====

# test_description: Cmax in rat
# Assay type: ADME, organism-based
# run_conditions: in vivo
readout: Cmax
Kindly report the value followed by its unit.

Solved cases below.
>  <compound>
COc1ccc(N(Cc2cnccc2C)C2CCN([C@H](C)CCNC(=O)c3c(C)ccnc3Cl)CC2)cc1

>  <readout>
Cmax

>  <recorded_result>
3110 nM

$$$$
>  <compound>
COCCOc1ccc(N(Cc2cnccc2C)C2CCN([C@H](C)CCNC(=O)c3c(C)cc(Cl)nc3C)CC2)cc1

>  <readout>
Cmax

>  <recorded_result>
1070 nM

$$$$
>  <compound>
CC(CCNC(=O)c1c(Cl)cncc1Cl)N1CCC(N(Cc2cccc(C#N)c2)c2ccc(OC(F)(F)F)cc2)CC1 (configuration not stated)

>  <readout>
Cmax

>  <recorded_result>
530 nM

$$$$
>  <compound>
CC(CCNC(=O)c1c(Cl)cncc1Cl)N1CCC(N(Cc2ccccc2)c2ccc(Oc3ccc(C(=O)O)cc3)cc2)CC1 (configuration not stated)

>  <readout>
Cmax

>  <recorded_result>
2790 nM

$$$$
>  <compound>
COc1ccc(N(Cc2cnccc2C)C2CCN([C@H](C)CCNC(=O)c3c(C)cc(Cl)nc3C)CC2)cc1

>  <readout>
Cmax

>  <recorded_result>
3800 nM

$$$$
>  <compound>
COc1ccc(N(Cc2cnccc2C)C2CCN([C@H](C)CCNC(=O)c3c(C)cc(F)nc3C)CC2)cc1

>  <readout>
Cmax

>  <recorded_result>
1270 nM

$$$$

Consider the record given below.
For COc1ccc(N(Cc2cccnc2)C2CCN([C@H](C)CCNC(=O)c3c(C)cc(Cl)nc3C)CC2)cc1 the compound record lists Cmax as 1330 nM

====

# test_description: Volume of distribution at steady state in dog at 5 umol/kg, iv
# Assay type: ADME, organism-based, Canis lupus familiaris
# run_conditions: in vivo, read-out: Vdss
The label depends only on Vd: yes if it is at least 5 L/kg, no if it is smaller.

Example entries begin here.
>  <compound>
CC(CCNC(=O)c1c(Cl)cncc1Cl)N1CCC(N(Cc2cccc(C#N)c2)c2ccc(OC(F)(F)F)cc2)CC1 (centres undefined)

>  <qualitative_label>
yes

$$$$
>  <compound>
COc1ccc(N(Cc2cnccc2C)C2CCN([C@H](C)CCNC(=O)c3c(C)cc(Cl)nc3C)CC2)cc1

>  <qualitative_label>
yes

$$$$
>  <compound>
COc1ccc(N(Cc2cnccc2C)C2CCN([C@H](C)CCNC(=O)c3c(C)cc(F)nc3C)CC2)cc1

>  <qualitative_label>
yes

$$$$

Could you please find out whether COc1ccc(N(Cc2cnccc2C)C2CCN([C@H](C)CCNC(=O)c3c(C)ccnc3Cl)CC2)cc1 has Vd that meets 5 L/kg or exceeds it? yes

Test whether the compound COc1ccc(N(Cc2cccc(C#N)n2)C2CCN([C@H](C)CCNC(=O)c3c(C)cc(Cl)nc3C)CC2)cc1 records Vd of 5 L/kg or higher. no

Is reported Vd greater than or equal to 5 L/kg here: CC(CCNC(=O)c1c(Cl)cncc1Cl)N1CCC(N(Cc2ccccc2)c2ccc(Oc3ccc(C(=O)O)cc3)cc2)CC1 (centres undefined) no

Kindly determine if Vd recorded for COc1ccc(N(Cc2cnccc2C)C2CCN([C@H](C)CCNC(=O)c3c(C)cc(C(=O)NC(C)C)nc3C)CC2)cc1 is above or exactly 5 L/kg. yes

Is Vd for COc1ccc(N(Cc2cccnc2)C2CCN([C@H](C)CCNC(=O)c3c(C)cc(Cl)nc3C)CC2)cc1 at or above 5 L/kg? yes
